Listing of entries alongside the reported melting point.

Data request: Entry NS(=O)(=O)Cc1ccccc1Br has what melting point?
Data returned: 118 to 120 °C

Data request: Entry CCC(=O)Nc1cc2ccccc2cc1C(=O)O has what melting point?
Data returned: 234 to 236 °C

Data request: Entry COC(=O)c1sc2nc(CCl)nc(Cl)c2c1C has what melting point?
Data returned: 125 to 127 °C

Data request: Entry O=C(O)CNC(=O)NC1CCCCC1 has what melting point?
Data returned: 162 to 164 °C

Data request: Entry O=c1oc2cc(O)ccc2c2c1CCC2 has what melting point?
Data returned: 214 to 216 °C

Data request: Entry O=C(O)CC(Cc1ccccc1)c1ccccc1 (configuration not stated) has what melting point?
Data returned: 90 to 92 °C

Data request: Entry Nc1cc(Cl)cc2[nH]cnc12 has what melting point?
Data returned: 89 to 91 °C

Data request: Entry Nc1cc(C(=O)O)cc(C(F)(F)F)c1 has what melting point?
Data returned: 141 to 146 °C

Data request: Entry O=C1NCCCC1C(F)(F)F (configuration not stated) has what melting point?
Data returned: 99 to 101 °C

Data request: Entry O=Cc1ccc(OCc2ccccn2)cc1 has what melting point?
Data returned: 88 to 90 °C

Data request: Entry NC1=NS(=O)(=O)c2ccccc21 has what melting point?
Data returned: 279 to 281 °C

Data request: Entry NC(=S)Cc1cccc(F)c1 has what melting point?
Data returned: 69 to 71 °C

Data request: Entry COc1cc(C=O)cc(Br)c1OC(F)F has what melting point?
Data returned: 90 to 92 °C

Data request: Entry Cc1ccc2c(c1C)OCCCC2=O has what melting point?
Data returned: 50 to 52 °C

Data request: Entry CC(O)Cc1ccccc1S(C)(=O)=O (configuration not stated) has what melting point?
Data returned: 55 to 57 °C
